Measured on: T1, streptavidin-R-phycoerythrin (UniProt P22629 37-163, limits assumed)
T1 construct: Bought conjugate; also called SA-PE; fluorescently-conjugated streptavidin probe
Measurement protocol: flow cytometry of E. coli displaying the construct, 100 nM SA-PE; 50 minutes of expression
Could you please report measured Relative Display level (fold fluorescence above background) for the items listed next?
The response must be a number in fold above background with no trailing unit.

In: Please report Relative Display level (fold fluorescence above background) for the following binder: CPX-3X-3 displaying SApep at the N-terminus (other) GQSGQAECHPQGPPCIEGRKGGQSGQSGDYNKNQYYGITAGPAYRINDWASIYGVVGVGYGKFQTTEYPTYKHDTSDYGFSYGAGLQFNPMENVALDFSYEQSRIRSVDVGTWIAGVGYRFGTKATSTVTGGYAQSDAQGQMNKMGGFNLKYRYEEDNSPLGVIGSFTYTEKSRTAS
Out: 7.1

In: Please report Relative Display level (fold fluorescence above background) for the following binder: CPX-6X-3 displaying SApep at the N-terminus (other) GQSGQAECHPQGPPCIEGRKGGQSGQSGDYNKNQYYGITAGPAYRINDWASIYGVVGVGYGKFQTTEYPTYKHDTSDYGFSYGAGLQFNPMENVALDFSYEQSRIRSVDVGTWIAGVGYRFGNRRHRATSTVTGGYAQSDAQGQMNKMGGFNLKYRYEEDNSPLGVIGSFTYTEKSRTAS
Out: 24

In: Please report Relative Display level (fold fluorescence above background) for the following binder: CPX-3X-4 displaying SApep at the N-terminus (other) GQSGQAECHPQGPPCIEGRKGGQSGQSGDYNKNQYYGITAGPAYRINDWASIYGVVGVGYGKFQTTEYPTYKHDTSDYGFSYGAGLQFNPMENVALDFSYEQSRIRSVDVGTWIAGVGYRFGKKATSTVTGGYAQSDAQGQMNKMGGFNLKYRYEEDNSPLGVIGSFTYTEKSRTAS
Out: 10

In: Please report Relative Display level (fold fluorescence above background) for the following binder: CPX-6X-1 displaying SApep at the N-terminus (other) GQSGQAECHPQGPPCIEGRKGGQSGQSGDYNKNQYYGITAGPAYRINDWASIYGVVGVGYGKFQTTEYPTYKHDTSDYGFSYGAGLQFNPMENVALDFSYEQSRIRSVDVGTWIAGVGYRFGTKRYHATSTVTGGYAQSDAQGQMNKMGGFNLKYRYEEDNSPLGVIGSFTYTEKSRTAS
Out: 35

In: Please report Relative Display level (fold fluorescence above background) for the following binder: CPX with the streptavidin binding peptide fused to the N-terminus (pB33CPX-SApep) (other, also called parent CPX scaffold) GQSGQAECHPQGPPCIEGRKGGQSGQSGDYNKNQYYGITAGPAYRINDWASIYGVVGVGYGKFQTTEYPTYKHDTSDYGFSYGAGLQFNPMENVALDFSYEQSRIRSVDVGTWIAGVGYRFGGSGATSTVTGGYAQSDAQGQMNKMGGFNLKYRYEEDNSPLGVIGSFTYTEKSRTAS
Out: 2.3

In: Please report Relative Display level (fold fluorescence above background) for the following binder: CPX-4X-4 displaying SApep at the N-terminus (other) GQSGQAECHPQGPPCIEGRKGGQSGQSGDYNKNQYYGITAGPAYRINDWASIYGVVGVGYGKFQTTEYPTYKHDTSDYGFSYGAGLQFNPMENVALDFSYEQSRIRSVDVGTWIVGVGYRFPRKSATSTVTGGYAQSDAQGQMNKMGGFNLKYRYEEDNSPLGVIGSFTYTEKSRTAS
Out: 22
